- System Under Test: SpoVG-6-His (Listeria monocytogenes 10403S) (UniProt Q8YAD5)
- Sequence: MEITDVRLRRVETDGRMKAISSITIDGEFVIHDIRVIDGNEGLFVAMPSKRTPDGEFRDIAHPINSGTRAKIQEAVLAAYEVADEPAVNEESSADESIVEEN
- Measurement Description: EMSA
- Test Conditions: 2x buffer: 40 mM Tris-HCl pH 8.0, 2 mM MgCl2, 20% glycerol, 300 mM NaCl, 5 mM DTT, plus 5 ug yeast tRNA, 1 ug BSA, 100 ng poly(dI-dC) …
Value Kind: binding

GGUAUCCCAUAGAGAUUGUCAGGGGAAAUAAGCUAAUUGAAAAUAAAUUACUUCCCCCAUAGAAAUAUUCUUAAUUGCUUAUUUCAAAUAAACACUCCUUUAAGAUAGUUGUAGCACAGAAUUUCCCAGAUUCUGUGCUAUAAUUA [Rli31 mutant A]	binds

Just for reference, paper PMC4959528 is where these values come from.
